# assay overview: 1-Octanol-phosphate buffered saline partition coefficient of the compound at pH 7.4
Overview of reported PC across a group of molecules:
Number only, please.

Worked examples, 3 molecules total:
- cpd smiles: "COc1c2c3c4c(c(OC)c(=O)c5c(O)cc(OC)c(c6c(OC)cc(O)c(c1=O)c63)c54)C(/C(C)=N/CCCS(=O)(=O)O)=C(C)C2"
  PC: 4.8
- cpd smiles: "COc1c2c3c4c(c(NCCS(=O)(=O)O)c(=O)c5c(O)cc(OC)c(c6c(OC)cc(O)c(c1=O)c63)c54)CC(C)=C2C(C)=O"
  PC: 2.2
- cpd smiles: "COc1c2c3c4c(c(OC)c(=O)c5c(O)cc(OC)c(c6c(OC)cc(O)c(c1=O)c63)c54)C(/C(C)=N/CCCCCS(=O)(=O)O)=C(C)C2"
  PC: 9

Kindly consider the entry below.
IN: Give the measured PC for COc1c2c3c4c(c(OC)c(=O)c5c(O)cc(OC)c(c6c(OC)cc(O)c(c1=O)c63)c54)C(/C(C)=N/CCCCS(=O)(=O)O)=C(C)C2
OUT: 7.5

----------
# assay overview: Photosensitization activity of the compound assessed as singlet oxygen production by DPA-bleaching method
# Format: physicochemical
recorded metric: Activity
The answer should be written as a number, with no unit following it.

Solved cases (3 shown):
- cpd smiles: "COC1=C(C(C)=O)C2=C(C)Cc3c(OC)c(=O)c(O)c4cc(OC)c5c(OC)cc(O)c6c(c2c3c4c56)C1=O"
  Activity: 0.76
- cpd smiles: "COc1c2c3c4c(c(OC)c(=O)c5c(O)cc(OC)c(c6c(OC)cc(O)c(c1=O)c63)c54)C(/C(C)=N/CCCCS(=O)(=O)O)=C(C)C2"
  Activity: 0.94
- cpd smiles: "COc1c2c3c4c(c(OC)c(=O)c5c(O)cc(OC)c(c6c(OC)cc(O)c(c1=O)c63)c54)C(/C(C)=N/CCCCCS(=O)(=O)O)=C(C)C2"
  Activity: 0.98

// moving on: another record for Activity
IN: Determine its reported Activity: COc1c2c3c4c(c(OC)c(=O)c5c(O)cc(OC)c(c6c(OC)cc(O)c(c1=O)c63)c54)C(/C(C)=N/CCCCCCS(=O)(=O)O)=C(C)C2
OUT: 1.01
